System: DYRK2;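 note: KINOMEscan kinase panel screen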
Conditions: concentration: 1 μM, replicates: in singlicate; n = 1
Reported endpoint: %Inh (%)
Write the answer as a number in %, unit excluded.

[[record]]
molecule = "Cn1cc(-c2ccc3c(c2)CCN3C(=O)Cc2cccc(C(F)(F)F)c2)c2c(N)ncnc21"
subject_of_test = "DYRK2"
reported_endpoint = "%Inh"
measured_number = 27

[[record]]
molecule = "Clc1ccc(-c2cc(-c3c[nH]nc3-c3ccccn3)ccn2)cc1"
subject_of_test = "DYRK2"
reported_endpoint = "%Inh"
measured_number = 0

[[record]]
molecule = "CSc1nn2c(=O)cc(N3CCOCC3)nc2n1Cc1cccc(Cl)c1Cl"
subject_of_test = "DYRK2"
reported_endpoint = "%Inh"
measured_number = 8

[[record]]
molecule = "COc1cc2c(Nc3cccc(NC(=O)c4ccccc4)c3)ncnc2cc1OCCCN1CCOCC1"
subject_of_test = "DYRK2"
reported_endpoint = "%Inh"
measured_number = 33

[[record]]
molecule = "Cc1ccc(O)cc1Nc1cc(C(F)(F)F)nc2ccc(-c3ccncc3)cc12"
subject_of_test = "DYRK2"
reported_endpoint = "%Inh"
measured_number = 0


Problem: Which %Inh is reported for this molecule? O=c1cc(N2CCOCC2)nc2n(Cc3cccc(Cl)c3)ccn12
Result: 9

Problem: Which %Inh is reported for this molecule? Cl.c1ccc(Cn2ccc3cc(Nc4ncnc5ccccc45)ccc32)cc1
Result: 9
